- TESTED SYSTEM: T1, LexA (DinR) wild type (Bacillus subtilis, UniProt P31080 1-205)
- T1 sequence: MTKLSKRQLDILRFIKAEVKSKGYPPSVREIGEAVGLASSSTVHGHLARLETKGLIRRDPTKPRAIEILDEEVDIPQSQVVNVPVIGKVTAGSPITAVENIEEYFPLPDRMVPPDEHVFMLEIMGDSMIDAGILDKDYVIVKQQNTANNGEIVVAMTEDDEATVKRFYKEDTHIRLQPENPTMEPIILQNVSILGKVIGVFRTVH
- METHOD SUMMARY: competition EMSA
MEASUREMENT TYPE: Ki (nM)
Express your answer in nM, writing the number without its unit.

Which Ki reading was recorded for the binder recA op T5C (dsDNA) DNA 1: GGGGGGCGAACATGCGTTCGCCCCCC DNA 2: GGGGGGCGAACGCATGTTCGCCCCCC ? 0.22
